Where these numbers come from: ChEMBL document CHEMBL2086392

test: Solubility of the compound in 10% DMSO; format: physicochemical
endpoint-label: solubility

O=C(N[C@@H]1CO[C@H]2[C@@H]1OC[C@H]2OCc1ccccc1)/C(=C/c1ccc(C(F)(F)F)cc1)NC(=O)c1ccccc1 (stereo in doubt)    Insoluble
O=C(N[C@@H]1CO[C@H]2[C@@H]1OC[C@H]2OCc1ccccc1)/C(=C/c1cc2ccccc2s1)NC(=O)c1ccccc1    Insoluble
COc1ccc(/C=C(\NC(=O)c2ccccc2)C(=O)N[C@@H]2CO[C@H]3[C@@H]2OC[C@H]3OCc2ccccc2)cc1 (stereo in doubt)    Insoluble

* * *

Target sequence: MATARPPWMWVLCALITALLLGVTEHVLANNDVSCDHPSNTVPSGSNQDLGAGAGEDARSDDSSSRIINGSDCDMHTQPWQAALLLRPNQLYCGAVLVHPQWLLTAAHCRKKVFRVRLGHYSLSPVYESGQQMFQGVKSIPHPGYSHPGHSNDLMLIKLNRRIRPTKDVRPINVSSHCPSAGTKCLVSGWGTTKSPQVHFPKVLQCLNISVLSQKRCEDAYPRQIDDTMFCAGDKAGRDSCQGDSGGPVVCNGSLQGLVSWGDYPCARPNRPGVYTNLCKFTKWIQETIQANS
pKi: −log10 of the molar value.
endpoint-label: pKi

[1] O=C(N[C@@H]1CO[C@H]2[C@@H]1OC[C@H]2OCc1ccccc1)/C(=C/c1ccc2c(c1)OCO2)NC(=O)c1ccccc1 (stereo in doubt)
[2] O=C(N[C@@H]1CO[C@H]2[C@@H]1OC[C@H]2OCc1ccccc1)/C(=C/c1ccco1)NC(=O)c1ccccc1 (stereo in doubt)
[in] Look at 1 and 2 . Which one has the lower recorded pKi number? Identify your selection by its label.
[out] 1
(1: 3.45, 2: 4.15)
